Values from patent US20180214548A1

Biological target: T1, cyno PD-1^ECD-hFc protein (cyno monkey, UniProt B0LAJ3 25-167)
T1 construct: Prepared by the method for Immunogen A; also called Cyno Monkey PD-1^ECD-hFc; cyno monkey PD-1-hFc; not shown: human IgG Fc fragment (hFc) and its junction to the ECD
T1 sequence (B0LAJ3 entry or part of it limits assumed): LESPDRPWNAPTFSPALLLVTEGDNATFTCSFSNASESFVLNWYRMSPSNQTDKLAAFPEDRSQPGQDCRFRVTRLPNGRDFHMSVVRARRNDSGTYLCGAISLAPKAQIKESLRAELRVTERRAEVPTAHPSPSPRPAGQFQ
Test: ELISA, coated cyno PD-1ECD-hFc; antibody 100 nM
ASSAY METRIC: OD450 nm

chimeric anti-PD-1 antibody 223G6B5 (antibody, V domains shown, Purified from hybridoma of Harbour H2L2 mice: human variable regions, rat constant regions) VH: QVQLQESGPGLVKPSETLSLTCAVSGHSIRGSYFWGWIRQPPGRGLEWIGSIYHSGSTYTNPSLKSRATISVDTSKNQFSLKLNSVTAADTAVYYCARDLDIATTRDYWGQGTLVTVSS VL: DIQLTQSPSFLSASVGDRVTIICRASQGINNYLAWYQQKPGKAPKLLIYAASTLQSGVPSRFSGSGSGTEFTLTISSLQPEDFATYYCQQLDSYPRTFGQGTKVEIKR : 2.7
